So I've got a bunch of sequences here, and I need their phosphorylation enrichment values.
Tested on: c-Src
Assay: phosphorylation enrichment, bacterial display (enrichment ratio); higher = better substrate or ligand; peptides without Tyr show the background;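 also: 11-residue human phosphosite peptides and single-mutation variants displayed on the E. coli surface, counted by deep sequencing, each peptide's frequency after selection divided by its frequency in the unselected input library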;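 also: frequency after pTyr selection over input frequency; kinase dosed for 20-30% of maximal phosphorylation in three min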
Keep it simple and answer with nothing but the number.

Identify the reported phosphorylation enrichment for the following entry. AARVSYWLASG [DCHS1_Y1582_R1583W] 0.364

Supply measured phosphorylation enrichment of LLNPRYNLPLD [TOM1L1_Y109] in your reply. 0.59

Give phosphorylation enrichment for HNLYSYPTKYE [MYO3A_Y1396_H1400Y] 2.62

State its phosphorylation enrichment: RIFDFYSARKA [STOX1_Y858_YF] 0.645

Note phosphorylation enrichment for the sequence shown: CNSFRYGGGGG [NPPA_Y151] 0.311

Given DAVCFYRMENA [NPHS2_Y195_I192V_YF] , respond with its phosphorylation enrichment. 3.07

Fill in phosphorylation enrichment for record LEDPMYDIIRD [RP9_Y142_H137L] 7.86

Answer with the recorded phosphorylation enrichment of EDKFMYSEFPQ [PTEN_Y240_F241S] only. 2.91

State, in one line, measured phosphorylation enrichment of FENGEYIIRQG [PRKG1_Y247_YF] 0.591

Complete the entry with phosphorylation enrichment for EILLSYLRTGY [TGM1_Y365] 0.462

Specify measured phosphorylation enrichment for RSDSTYRMSAT [NHS_Y1532_S1531T] . 0.632

Quote phosphorylation enrichment reported for AGQEGYDRLRP [RAC1_Y64_D63G] please. 0.378

Quote phosphorylation enrichment reported for QQIFTYDSGIH [JUP_Y22_T19I_YF] please. 0.939

Consider the sequence RRGMPYGGLGD [TGM1_Y312_R315L] . State its measured phosphorylation enrichment. 0.398

----------
Tested on: AncSZ
Assay: phosphorylation enrichment, bacterial display (enrichment ratio); higher = better substrate or ligand; peptides without Tyr show the background
Kindly return 1 (yes) if reported phosphorylation enrichment is no lower than 1; return 0 (no) if it is lower.

Assess whether reported phosphorylation enrichment for AAPAAHDAADT [GAMT_Y27_Y27H] sits at 1 or higher. 0 (no)

I'd appreciate it if you could say whether LKDEDYLKDTV [HAUS3_Y582_I586T] has phosphorylation enrichment at least equal to 1. 1 (yes)

Reported phosphorylation enrichment reaches at least 1 for HFGNNYRDVLQ [MACC1_Y803_YF] ? 0 (no)

// inclusive: phosphorylation enrichment at least 1? input: FPIDHYLGKEM [G6PD_Y202_R198P_YF] 0 (no)

Could you please find out whether AARVSYWLASG [DCHS1_Y1582_R1583W] has phosphorylation enrichment that meets 1 or exceeds it? 1 (yes)

Is the recorded value of phosphorylation enrichment equal to or greater than 1 for this sequence? GNLLIYTEFGK [HGD_Y166] 1 (yes)

Determine whether this sequence has phosphorylation enrichment no lower than 1: IEENGYNTFAS [FGF10_Y161_YF] 0 (no)

API: above_or_equal(metric=phosphorylation enrichment, cutoff=1) for item KDHPDYKFQRR [SOX10_Y171_P175R_YF] 0 (no)

Kindly determine if phosphorylation enrichment recorded for TRSFKCLLLSM [NF1_Y491_Y491C_YF] is above or exactly 1. 0 (no)

Determine whether this sequence has phosphorylation enrichment no lower than 1: IPPRRYFCSGV [STAMBP_Y36_R38C] 0 (no)

Decide: phosphorylation enrichment of EDKFMYSEFPQ [PTEN_Y240_F241S] >= 1? 1 (yes)

Does phosphorylation enrichment meet or surpass 1 for PFRQWYESHFA [RPS8_Y113_YF] ? 1 (yes)

Form field: phosphorylation enrichment at least 1? Entry: ERSMSYCDESR [SMG1_Y143_S144C] 0 (no)

Is it the case that NAMRRHIEEFQ [MNS1_Y244_Y244H] has phosphorylation enrichment reaching or exceeding 1? 0 (no)

----------
Target: Hck (UniProt P08631)
Sequence (P08631 whole entry, looked up): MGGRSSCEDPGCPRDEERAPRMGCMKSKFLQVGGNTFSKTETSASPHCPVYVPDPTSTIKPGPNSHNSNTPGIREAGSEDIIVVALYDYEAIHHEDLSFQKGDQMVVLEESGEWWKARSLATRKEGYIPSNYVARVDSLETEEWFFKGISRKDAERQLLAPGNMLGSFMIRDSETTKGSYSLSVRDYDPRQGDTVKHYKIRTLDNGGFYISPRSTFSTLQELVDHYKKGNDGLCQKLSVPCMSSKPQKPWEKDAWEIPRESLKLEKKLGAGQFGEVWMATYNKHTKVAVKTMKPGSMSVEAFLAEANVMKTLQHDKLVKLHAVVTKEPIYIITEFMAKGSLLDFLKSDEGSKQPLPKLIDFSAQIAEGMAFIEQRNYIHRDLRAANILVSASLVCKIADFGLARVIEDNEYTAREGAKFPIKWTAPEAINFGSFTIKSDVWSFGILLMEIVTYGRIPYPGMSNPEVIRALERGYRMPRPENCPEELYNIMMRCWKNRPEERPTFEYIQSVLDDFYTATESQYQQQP
Test: phosphorylation enrichment, bacterial display (enrichment ratio); higher = better substrate or ligand; peptides without Tyr show the background
MEASUREMENT_LABEL: phosphorylation enrichment
Lab note: jot the number down without any unit.

In one line, give reported phosphorylation enrichment of the entry RIVEIYSRRLQ [GCH1_Y175] . 1.02

Given GSERRYSREGG [PTPRN2_Y139] , respond with its phosphorylation enrichment. 0.356

Name the recorded phosphorylation enrichment of the item RNIQQYNSFVS [PRKAR1A_Y373] in your answer. 0.64

State its phosphorylation enrichment: RHTRSYDYMEG [FGF7_Y56] 0.716

Supply measured phosphorylation enrichment of NHQYDYTFDWT [CSNK1A1_Y294] in your reply. 0.543

Retrieve phosphorylation enrichment measured for VRFMAYTDETF [F8_Y450] and print it. 0.487

Hello, please tell me recorded phosphorylation enrichment for this one: GSETPYMDRTP [ESS2_Y335_V336M] 0.365

Name the recorded phosphorylation enrichment of the item EFGFRYELVQF [UGGT2_Y1289_Y1285F_YF] in your answer. 0.509

Report phosphorylation enrichment, nothing else, for this sequence: CDYKKYGKGLR [ZNF445_Y433_Y428C] 0.349

Indicate its recorded phosphorylation enrichment; the sequence in question is TDTAAYEERLR [SPTB_Y474_V478L] 0.516

Tell me measured phosphorylation enrichment for NHFKIYNLFAE [PTEN_Y68_C71Y_YF] please. 1.53

Identify measured phosphorylation enrichment corresponding to NCLREYVAGRF [CRB1_Y711] 0.411

Please look at this sequence and report its phosphorylation enrichment: QTENKYDSVSG [EIF2AK3_Y565] 0.783

Return reported phosphorylation enrichment. Input sequence: GAVGNYSGGLA [MGMT_Y158] 0.408

Report measured phosphorylation enrichment; entry is TESNNYIYKTL [FAM83B_Y637] 0.99

// fetch phosphorylation enrichment given entry GLDGSYLLRDS [SH2D1A_Y29] 0.563

Complete the entry with phosphorylation enrichment for RAFRHYLLKQK [SCN2A_Y1919_R1918H_YF] 1.28

Please list phosphorylation enrichment recorded for the sequence EGLKVYVNGTL [ADGRD1_Y183] 0.457

Check the records and state phosphorylation enrichment for EVEFQYPFRLH [SYP_Y73_E72Q] 0.473

Determine from records and report phosphorylation enrichment for WQQQSYLASGI [CTNNB1_Y30_D32A] 0.447

Give the measured phosphorylation enrichment for KPLMPCMRYSR [SMARCE1_Y73_Y73C] 0.517

For the sequence GEEIKYMLWLS [OTC_Y55] , report phosphorylation enrichment. 0.645

Read off the recorded phosphorylation enrichment for PELINYHQHYS [BTK_Y361_N365Y] 0.356

Respond only with phosphorylation enrichment recorded for CFTRQYTLPPG [HSPB1_Y142_K141Q] 0.497

Give the reported phosphorylation enrichment for this sequence. HRERPYGGGGG [FUS_Y526_R521H] 0.439

Specify phosphorylation enrichment for ADRNHYRRYPR [YBX1_Y145] and stop. 0.55

Answer with reported phosphorylation enrichment of KNNSIYVVANI [VNN1_Y134] 0.888

Assign phosphorylation enrichment to the following record: AHAGEYGVEAL [HBA1_Y25_A27V] 0.547

State its phosphorylation enrichment for this sequence: PLRADYLIARV [HLCS_Y635] 0.461

Item FPIDHYLGKEM [G6PD_Y202_R198P_YF] : provide phosphorylation enrichment 0.68

// Input: IVTLKYPIEHG [ACTB_Y69_L65V] . Output its phosphorylation enrichment only. 0.466

Write down phosphorylation enrichment measured for item RHLQEYQDPLN [GFAP_Y349_L352P] 0.517

Kindly indicate its recorded phosphorylation enrichment. Item: NLTVNYKKNLI [SQOR_Y259] 0.389

----------
Target: FGFR3 (UniProt P22607)
Sequence (P22607 whole entry, looked up): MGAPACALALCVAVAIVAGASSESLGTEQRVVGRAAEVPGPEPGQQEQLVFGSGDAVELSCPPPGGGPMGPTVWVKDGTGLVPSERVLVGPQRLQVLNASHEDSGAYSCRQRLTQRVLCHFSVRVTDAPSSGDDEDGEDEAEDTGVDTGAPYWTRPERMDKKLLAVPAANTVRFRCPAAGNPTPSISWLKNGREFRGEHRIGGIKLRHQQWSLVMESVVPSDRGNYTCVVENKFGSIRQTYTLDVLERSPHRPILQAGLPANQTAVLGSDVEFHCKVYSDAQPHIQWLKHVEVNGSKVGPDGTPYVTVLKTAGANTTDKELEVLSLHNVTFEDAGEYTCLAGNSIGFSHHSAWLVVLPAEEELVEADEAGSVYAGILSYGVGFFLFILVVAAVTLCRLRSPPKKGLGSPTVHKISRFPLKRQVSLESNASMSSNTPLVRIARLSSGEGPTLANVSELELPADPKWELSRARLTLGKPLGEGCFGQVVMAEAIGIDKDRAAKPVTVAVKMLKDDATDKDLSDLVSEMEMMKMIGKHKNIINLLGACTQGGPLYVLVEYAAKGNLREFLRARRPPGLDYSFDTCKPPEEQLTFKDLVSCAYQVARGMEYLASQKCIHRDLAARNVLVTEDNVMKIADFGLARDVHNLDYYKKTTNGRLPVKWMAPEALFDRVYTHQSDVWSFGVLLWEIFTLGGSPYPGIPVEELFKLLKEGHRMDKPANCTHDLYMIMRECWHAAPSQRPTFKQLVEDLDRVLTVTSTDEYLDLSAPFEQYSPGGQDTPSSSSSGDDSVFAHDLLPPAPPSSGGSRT
Experiment: phosphorylation enrichment, bacterial display (enrichment ratio); higher = better substrate or ligand; peptides without Tyr show the background
Assign MET to entries whose phosphorylation enrichment meets or exceeds 0.7; assign NOT MET to the rest.

I'd appreciate it if you could say whether MGGSLYFSFPD [HIKESHI_Y55_V54L_YF] has phosphorylation enrichment at least equal to 0.7. MET

Check if phosphorylation enrichment >= 0.7 (inclusive). Item: KGEDFYCVTCP [FHL1_Y149_H154P] MET

Check this sequence for phosphorylation enrichment at or above 0.7: GYIISYREEEQ NOT MET

In plain terms: is recorded phosphorylation enrichment at least 0.7 for FTGDIYSNSNL [LZTR1_Y141_YF] ? NOT MET

Kindly determine if phosphorylation enrichment recorded for RWHEGYRQTPR [CD44_Y412_K417R] is above or exactly 0.7. NOT MET

Could you please find out whether TEAEPYYCSLR [NPHS1_Y1138_R1140C] has phosphorylation enrichment that meets 0.7 or exceeds it? MET

----------
Target: EPHB1 (UniProt P54762)
Sequence (P54762 whole entry, looked up): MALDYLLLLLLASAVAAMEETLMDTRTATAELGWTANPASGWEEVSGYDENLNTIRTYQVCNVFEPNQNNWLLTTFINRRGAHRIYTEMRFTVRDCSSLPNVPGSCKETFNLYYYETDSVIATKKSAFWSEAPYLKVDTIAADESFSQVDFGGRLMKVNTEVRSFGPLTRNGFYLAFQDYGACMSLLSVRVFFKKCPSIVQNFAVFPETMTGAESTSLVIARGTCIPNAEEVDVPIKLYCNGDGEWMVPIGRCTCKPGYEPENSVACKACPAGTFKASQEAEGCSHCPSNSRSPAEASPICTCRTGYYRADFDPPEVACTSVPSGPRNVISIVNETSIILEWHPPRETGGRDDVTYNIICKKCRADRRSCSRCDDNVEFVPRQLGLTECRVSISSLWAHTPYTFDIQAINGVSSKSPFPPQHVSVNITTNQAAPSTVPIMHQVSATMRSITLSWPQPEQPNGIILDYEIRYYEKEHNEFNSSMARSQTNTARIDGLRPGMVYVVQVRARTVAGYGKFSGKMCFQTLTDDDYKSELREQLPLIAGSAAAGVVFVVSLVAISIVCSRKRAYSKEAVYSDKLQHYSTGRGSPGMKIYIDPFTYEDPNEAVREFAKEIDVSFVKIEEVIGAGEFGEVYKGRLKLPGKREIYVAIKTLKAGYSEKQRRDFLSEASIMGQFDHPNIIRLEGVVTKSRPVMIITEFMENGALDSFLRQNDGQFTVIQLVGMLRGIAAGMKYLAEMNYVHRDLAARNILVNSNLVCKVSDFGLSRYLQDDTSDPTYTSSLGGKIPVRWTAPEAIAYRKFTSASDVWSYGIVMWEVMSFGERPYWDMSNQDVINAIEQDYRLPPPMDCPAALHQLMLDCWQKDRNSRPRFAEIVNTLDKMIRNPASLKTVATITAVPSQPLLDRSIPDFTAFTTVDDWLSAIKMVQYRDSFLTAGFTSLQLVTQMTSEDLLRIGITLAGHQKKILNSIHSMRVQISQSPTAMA
Test: phosphorylation enrichment, bacterial display (enrichment ratio); higher = better substrate or ligand; peptides without Tyr show the background
MEASUREMENT_LABEL: phosphorylation enrichment
Reply with the value as a number alone.

Return phosphorylation enrichment for the following sequence: NKEPRYQEEPP [TJP2_Y479_D482E] 0.499

Report measured phosphorylation enrichment; entry is NDHHFYLEGTL [ALDOB_Y223_V222F] 0.497

Please supply the value of reported phosphorylation enrichment for the item HELYVYKSDEN [DOCK3_Y548_C550S] 1.28

Report phosphorylation enrichment for SSENPCATIKD [MEGF10_Y1030_Y1030C] 0.43

Give the value of phosphorylation enrichment reported for the following: HNQDGYSYLSR [LDLR_Y845_P848L] 0.527

Note phosphorylation enrichment for the sequence shown: FESPRYLQVRI [FANCA_Y488_H492R] 0.537

Using the record for EILLSYLRTGY [TGM1_Y365] , state its measured phosphorylation enrichment. 0.544

Report phosphorylation enrichment, nothing else, for this sequence: QQPGPYDRPGA [HNRNPH2_Y210_R206Q] 0.528

Consider the sequence DAICFYRMENA [NPHS2_Y195_YF] . State its measured phosphorylation enrichment. 0.645

State its phosphorylation enrichment: DTFDPYLDVAL [USP36_Y268_YF] 0.641

Output measured phosphorylation enrichment for this item: PRPAGYPSTVS [CACNA1C_Y1832] 0.327

Name the recorded phosphorylation enrichment of the sequence listed here: HYEFKYVINAI [MAOA_Y268_C266F] 1.05

// fetch phosphorylation enrichment given entry CFTRQYTLPPG [HSPB1_Y142_K141Q] 0.577

Provide one value: measured phosphorylation enrichment of CTTIHFNYMCN [TP53_Y234_Y234F] 0.488
